experimental.details: protein stability index of a GFP-peptide fusion (yeast GPS) (PSI 1-4); higher = more stable; sorted into four equal gates, so the index is relative within each strain
condition.context: doa10∆
quantity: protein stability index
// return a plain number; no unit text

# count of solved cases: 2
# input What value of measured protein stability index is listed for CSNPTCGAGVFLANHKD [RPS31] ?
# output 3.06

# input What value of measured protein stability index is listed for ENDTTLVKTKELIKNYI [FAS1] ?
# output 3.04

Please look at the following sequence next.
# input What value of measured protein stability index is listed for EDEFIVQHDQILVMETS [SWP82] ?
# output 2.95

====

experimental.details: protein stability index of a GFP-peptide fusion (yeast GPS) (PSI 1-4); higher = more stable; sorted into four equal gates, so the index is relative within each strain
condition.context: ubr1∆
quantity: protein stability index

# count of solved cases: 8
# input What value of measured protein stability index is listed for DALVKRFKNSVKWYHFD [PRE7] ?
# output 3.08

# input What value of measured protein stability index is listed for APQVYIITKNENFLKEV [GAL11] ?
# output 3.5

# input What value of measured protein stability index is listed for SCIAVMAGLMHFKKPDI [RRP45] ?
# output 1.69

# input What value of measured protein stability index is listed for DVKTAEEASQLIEYMEN [NUT1] ?
# output 3.1

# input What value of measured protein stability index is listed for TSNNETNNGNDDNETEN [GRR1] ?
# output 2.92

# input What value of measured protein stability index is listed for LKHVLQLIFRQQTGLVD [SNU114] ?
# output 1.2

# input What value of measured protein stability index is listed for SNDSQSHFDYNTLEFII [YCG1] ?
# output 2.89

# input What value of measured protein stability index is listed for NIDTITDAMTESQPKQT [MCD1] ?
# output 3.32

Next:
# input What value of measured protein stability index is listed for FPKTTVAALRFTAGARA [RPL18A] ?
# output 1.5

# input What value of measured protein stability index is listed for KVLGVKDMSPILGELKR [LRP1] ?
# output 3.12

# input What value of measured protein stability index is listed for YMRKQVGVGKLNKLYGG [RPS19A] ?
# output 3.41

# input What value of measured protein stability index is listed for EEDISDLWNNFGNIMDN [RRP6] ?
# output 3.02

# input What value of measured protein stability index is listed for IVKASNWRLVEVGRVVL [RPL14A] ?
# output 1.69

# input What value of measured protein stability index is listed for LSYYVEETNVDIGVLEE [SMC4] ?
# output 3.5

# input What value of measured protein stability index is listed for KKENLTRDETVSLIKKY [YML103C/NUP188] ?
# output 2.6

# input What value of measured protein stability index is listed for EFLEDTSRTIVRNVKGP [RPS28A] ?
# output 3.03

====

experimental.details: protein stability index of a GFP-peptide fusion (yeast GPS) (PSI 1-4); higher = more stable; sorted into four equal gates, so the index is relative within each strain
condition.context: ubr1∆
Outcome label depends on protein stability index relative to 3: at/above gives yes (1), below gives no (0).

Sample answers from the record:
# input Does the reported protein stability index for FQNTNTRSALKLVRESE [QCR2] fall at or above the 3 mark?
# output no (0)

# input Does the reported protein stability index for EDDSSNSCFSDGSQQNL [REC8] fall at or above the 3 mark?
# output yes (1)

# input Does the reported protein stability index for KQNSSSDINQNDDSSSM [YDL088C/ASM4] fall at or above the 3 mark?
# output no (0)

# input Does the reported protein stability index for TVKTNDELMVIYISNLV [RPN8] fall at or above the 3 mark?
# output no (0)

Lab note: next sequence to report on.
# input Does the reported protein stability index for DMLTWVDSNLPDDEKFT [RPC40] fall at or above the 3 mark?
# output yes (1)

====

experimental.details: protein stability index of a GFP-peptide fusion (yeast GPS) (PSI 1-4); higher = more stable; sorted into four equal gates, so the index is relative within each strain
condition.context: san1∆
quantity: protein stability index
// return a plain number; no unit text

# input What value of measured protein stability index is listed for FPQYKLTTFANQVMMDR [ARP7] ?
# output 2.03

# input What value of measured protein stability index is listed for AQFLRSVVHPGEMVGVL [RPO21] ?
# output 2.3

# input What value of measured protein stability index is listed for SVINVSAQRDRRYRKRN [RPS17B] ?
# output 3.23

Next:
# input What value of measured protein stability index is listed for YRSHIFATNEERQMNFL [SWI3] ?
# output 2.59

# input What value of measured protein stability index is listed for DISAAIVHSSDGHLQFL [DLS1] ?
# output 3.01

# input What value of measured protein stability index is listed for QHIKVFKLDKDTSNWEL [YGL100W/SEH1] ?
# output 3.2

# input What value of measured protein stability index is listed for ESSKLMTVTKVSLPEGS [BRR2] ?
# output 3.19

====

experimental.details: protein stability index of a GFP-peptide fusion (yeast GPS) (PSI 1-4); higher = more stable; sorted into four equal gates, so the index is relative within each strain
condition.context: ubr1∆
Quick reference for protein stability index among some sequences
// return a plain number; no unit text

# count of solved cases: 3
# input What value of measured protein stability index is listed for EGDFLKSIIGKLTAERA [POP1] ?
# output 3.03

# input What value of measured protein stability index is listed for RALQENGIIMNGTLIGC [YMR153W/NUP53] ?
# output 3.06

# input What value of measured protein stability index is listed for RLENKLSEIESLDEILL [SRP68] ?
# output 3

Please look at the following sequence next.
# input What value of measured protein stability index is listed for PVPESAGKADTSIRLEG [SRB4] ?
# output 3.06

====

Quick reference for protein stability index among some sequences
experimental.details: protein stability index of a GFP-peptide fusion (yeast GPS) (PSI 1-4); higher = more stable; sorted into four equal gates, so the index is relative within each strain
condition.context: pdr5∆
// return a plain number; no unit text

# count of solved cases: 2
# input What value of measured protein stability index is listed for VDKIFEKVNNNATLTPN [SWI1] ?
# output 3.08

# input What value of measured protein stability index is listed for FQHILRLLNTNVDGNIK [RPS18A] ?
# output 2.95

Next:
# input What value of measured protein stability index is listed for IEKNVMESIGSDILTAE [RRP4] ?
# output 3.04

# input What value of measured protein stability index is listed for QHQEEPLLSLDVTPISM [RPN4] ?
# output 2.97

# input What value of measured protein stability index is listed for PSASLKLHHDLKLCLGD [YMR129W/POM152] ?
# output 3.09

# input What value of measured protein stability index is listed for ALEEAKLSDNISICMIL [YDL116W/NUP84] ?
# output 3.02

# input What value of measured protein stability index is listed for QHYLDTATAPRLFDKLK [QCR6] ?
# output 3.04

====

experimental.details: protein stability index of a GFP-peptide fusion (yeast GPS) (PSI 1-4); higher = more stable; sorted into four equal gates, so the index is relative within each strain
condition.context: ubr1∆
Outcome label depends on protein stability index relative to 3: at/above gives true, below gives false.

Sample answers from the record:
# input Does the reported protein stability index for EYNEDSRLCTPIPVQGE [RPN13] fall at or above the 3 mark?
# output true

# input Does the reported protein stability index for VDLTSSNFADSADYEIL [YDL116W/NUP84] fall at or above the 3 mark?
# output true

# input Does the reported protein stability index for TISKTVSSTIPRETIPF [FAS2] fall at or above the 3 mark?
# output false

# input Does the reported protein stability index for TPMTRISELPPQIRQEI [YGL172W/NUP49] fall at or above the 3 mark?
# output false

# input Does the reported protein stability index for LVASAKGLQTVVVEEDA [RPL31A] fall at or above the 3 mark?
# output false

Next:
# input Does the reported protein stability index for DHASIRRGYQVYREVCA [CYT1] fall at or above the 3 mark?
# output false

# input Does the reported protein stability index for EQIDENWSKEDLQKLLK [SWI3] fall at or above the 3 mark?
# output true

# input Does the reported protein stability index for TQVRVEFLEDTSRTIVR [RPS28A] fall at or above the 3 mark?
# output true

# input Does the reported protein stability index for IDAALDKQYRTAVATLL [SMC3] fall at or above the 3 mark?
# output false

# input Does the reported protein stability index for RAGVTIPSIPNPIANHT [SNF5] fall at or above the 3 mark?
# output false

====

experimental.details: protein stability index of a GFP-peptide fusion (yeast GPS) (PSI 1-4); higher = more stable; sorted into four equal gates, so the index is relative within each strain
condition.context: san1∆
Outcome label depends on protein stability index relative to 3: at/above gives T, below gives F.

Sample answers from the record:
# input Does the reported protein stability index for VKVKVSYQKLLKNYVLN [PRP8] fall at or above the 3 mark?
# output F

# input Does the reported protein stability index for IETVDDKLKDIVGQTSR [ITC1] fall at or above the 3 mark?
# output T

# input Does the reported protein stability index for KSLVQYIELLPNADDIR [DIS3] fall at or above the 3 mark?
# output F

# input Does the reported protein stability index for VAARMFHILLKLILEWV [ECM29] fall at or above the 3 mark?
# output F

# input Does the reported protein stability index for ASTINGASIIQVIFEIF [YML103C/NUP188] fall at or above the 3 mark?
# output F

# input Does the reported protein stability index for GTLDINPDDDYGFKQEI [FAS1] fall at or above the 3 mark?
# output F

# input Does the reported protein stability index for LASNFDNFDYFNQRDGE [MED1] fall at or above the 3 mark?
# output T

# input Does the reported protein stability index for FRSLFFRSYMDQEKKYG [RPB2] fall at or above the 3 mark?
# output F

Lab note: next sequence to report on.
# input Does the reported protein stability index for VHTIIAGLDEDGKGAVY [PRE7] fall at or above the 3 mark?
# output T

Source listed as the supplement of paper PMC9732359.
